Target: human chymase (Homo sapiens)
Sequence (P23946 22-247): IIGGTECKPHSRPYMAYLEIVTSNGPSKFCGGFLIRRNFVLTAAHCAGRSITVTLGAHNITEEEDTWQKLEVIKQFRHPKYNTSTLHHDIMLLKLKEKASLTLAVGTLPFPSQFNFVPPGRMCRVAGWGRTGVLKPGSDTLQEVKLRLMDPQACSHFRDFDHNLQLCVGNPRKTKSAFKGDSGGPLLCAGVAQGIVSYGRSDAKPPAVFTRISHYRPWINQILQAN
pIC50: −log10 of the molar value.
Readout: pIC50

CC(=O)O[C@H]1[C@H](Cc2ccccc2)C(=O)N1C(=O)NC(C)c1ccccc1 (stereo partly drawn) ... 8.38
C[C@@H](NC(=O)N1C(=O)[C@@H](Cc2ccccc2)[C@@H]1Oc1ccc(CC(=O)N2CCN(C)CC2)cc1)c1ccccc1 ... 8.95

[A] CC(OC(=O)c1ccc(O[C@@H]2[C@H](Cc3ccccc3)C(=O)N2C(=O)N[C@H](C)c2ccccc2)cc1)c1ccccc1 (stereo partly drawn)
[B] C[C@@H](NC(=O)N1C(=O)[C@@H](Cc2ccccc2)[C@@H]1Oc1ccc(C(=O)N2CCOCC2)cc1)c1ccccc1
Lowest pIC50? choose A or B # reply format: chosen label
A
(A: 7.72, B: 8.97)
